System: 439559-082-T-J2-PDC spheroid viability;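 note: spheroids exposed to compounds for seven days before readout; 100% = DMSO vehicle control viability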
Experimental details: Anticancer human tumor 439559-082-T-J2-PDC patient-derived colon adenocarcinoma cell line growth inhibition [POLQ]
Experimental context: second compound 0.1 µM; first compound 0.0316 µM; stronger effect = lower value; spheroids with HUVEC and MSC
Readout: viability, T/C (%)

Molecule	Measurement target	Readout	Unit annotation	Readout value
CCc1cc2c(N3CCc4c(cc(Cn5ccnc5)cc4-c4cn(C)nc4C(F)(F)F)C3=O)ccnc2c(OC)n1 + Nc1ccc(C#CCN(C(=O)Cc2ncc(C(F)(F)F)cc2C(F)(F)F)c2ccc(F)cc2)nn1	439559-082-T-J2-PDC spheroid viability	viability, T/C	%	90.6
O=c1[nH]cc(F)c(=O)[nH]1 + Nc1ccc(C#CCN(C(=O)Cc2ncc(C(F)(F)F)cc2C(F)(F)F)c2ccc(F)cc2)nn1	439559-082-T-J2-PDC spheroid viability	viability, T/C	%	115
CC[C@@]1(O)C(=O)OCc2c1cc1n(c2=O)Cc2cc3c(CN(C)C)c(O)ccc3nc2-1 + COC1C(OC(N)=O)C(O)C(Oc2ccc3c(O)c(NC(=O)c4ccc(O)c(CC=C(C)C)c4)c(=O)oc3c2C)OC1(C)C	439559-082-T-J2-PDC spheroid viability	viability, T/C	%	87.7

Source of measurements: PubChem BioAssay AID1963841
